Source of measurements: patent US7902373B2

TEST SYSTEM: human recombinant H-PGDS (Homo sapiens)
Sequence (O60760 whole entry): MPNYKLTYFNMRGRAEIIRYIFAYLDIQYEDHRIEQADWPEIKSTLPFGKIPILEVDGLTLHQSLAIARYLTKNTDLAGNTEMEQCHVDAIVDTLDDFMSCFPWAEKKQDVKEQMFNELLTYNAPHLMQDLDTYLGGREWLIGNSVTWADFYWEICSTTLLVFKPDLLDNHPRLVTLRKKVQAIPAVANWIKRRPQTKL
EXPERIMENT SUMMARY: Fluorescence intensity h-PGDS TBA enzyme assay
Assay type: biochemical
SETTINGS: Examples up to 622 (and 3a, 3b)
ENDPOINT: IC50 (nM)

Use these answered entries as a reference point.
# MOLECULE, IC50 (nM)
records = [
    ("O=C(NC1CCN(c2ncccn2)CC1)c1ccc(-c2cccc(F)c2)nc1", 0.222),
    ("O=C(NC1CCN(Cc2ccc3nsnc3c2)CC1)c1ccc(-c2cccc(F)c2)nc1", 1.25),
    ("CCOC(=O)N1CCC(NC(=O)c2ccc(-c3cccc(F)c3)nc2)C1 (centres unmarked)", 2.7),
    ("CCCN(C)C(=O)c1ccc(N2CCC(NC(=O)c3ccc(-c4cccc(F)c4)nc3)CC2)nn1", 1.05),
    ("CCN(CCO)C(=O)c1ccc(N2CCC(NC(=O)c3ccc(-c4cccc(F)c4)nc3)CC2)nc1", 1.14),
    ("O=C(NC1CCN(Cc2ccnn2CCc2ccccc2)CC1)c1ccc(-c2cccc(F)c2)nc1", 1.43),
]

1 = O=C(NC1CCN(Cc2ccccc2-c2cncnc2)CC1)c1ccc(-c2cccc(F)c2)nc1
2 = CS(=O)(=O)c1ccc(CN2CCC(NC(=O)c3ccc(-c4cccc(F)c4)nc3)CC2)cc1
// which entry has the larger IC50 value, 1 or 2 ? Record your answer as the label of the chosen record.
2
(2: 1.68 nM, 1: 0.281 nM)

====

TEST SYSTEM: human recombinant H-PGDS (Homo sapiens)
EXPERIMENT SUMMARY: Fluorescence intensity h-PGDS TBA enzyme assay
Format: biochemical
SETTINGS: Examples up to 622 (and 3a, 3b)
ENDPOINT: IC50 (nM)

Use these answered entries as a reference point.
# MOLECULE, MEASUREMENT
measured = [
    ("COc1ccc2ncnc(N3CCC(NC(=O)c4ccc(-c5cccc(F)c5)nc4)CC3)c2c1", 0.735),
    ("O=C(NC1CCN(Cc2cc(F)cc3c2OCOC3)CC1)c1ccc(-c2cccc(F)c2)nc1", 0.456),
    ("CC(C)OC(=O)Cn1nnnc1N1CCC(NC(=O)c2ccc(-c3cccc(F)c3)nc2)CC1", 1.53),
    ("Cc1ccc(-n2cccn2)c(CN2CCC(NC(=O)c3ccc(-c4cccc(F)c4)nc3)CC2)c1", 0.417),
    ("COc1cccc(CN2CCC(NC(=O)c3ccc(-c4cccc(F)c4)nc3)CC2)c1OC", 0.53),
]

A = CN(C(=O)c1ccc(N2CCC(NC(=O)c3ccc(-c4cccc(F)c4)nc3)CC2)nc1)C1CCC1
B = O=C(NC1CCN(c2ncnc3[nH]ccc23)CC1)c1ccc(-c2cccc(F)c2)nc1
// which entry has the larger IC50 value, A or B ? Record your answer as the label of the chosen record.
A

I = CCc1cn2nc(N3CC(NC(=O)c4ccc(-c5cccc(F)c5)nc4)C3)ccc2n1
II = O=C(NC1CCN(Cc2ccnc(NC3CC3)n2)CC1)c1ccc(-c2cccc(F)c2)nc1
III = O=C(NC1CCN(c2ccc(C(=O)NCCN3CCOCC3)nn2)CC1)c1ccc(-c2cccc(F)c2)nc1
In this exercise, place the 3 molecules in ascending sequence of their recorded IC50. Please, when replying, give the labels in the order that was requested.
III, II, I

A = O=C(NC1CCN(Cc2cc(F)c(F)c(F)c2)CC1)c1ccc(-c2cccc(F)c2)nc1
B = Cc1csc2c(N3CCC(NC(=O)c4ccc(-c5cccc(F)c5)nc4)CC3)ncnc12
C = O=C(NC1CCN(Cc2ccccc2OC(F)F)CC1)c1ccc(-c2cccc(F)c2)nc1
Order the 3 molecules from highest to lowest IC50. Please, when replying, give the labels in the order that was requested.
B, A, C
(B: 2.18 nM, A: 1.19 nM, C: 0.465 nM)

====

TEST SYSTEM: human recombinant H-PGDS (Homo sapiens)
EXPERIMENT SUMMARY: Fluorescence intensity h-PGDS TBA enzyme assay
Format: biochemical
SETTINGS: Examples up to 622 (and 3a, 3b)
pIC50: −log10 of the molar value.
ENDPOINT: pIC50

# MOLECULE, ENDPOINT, MEASUREMENT
measured = [
    ("COc1ccc(C(C)N2CCC(NC(=O)c3ccc(-c4cccc(F)c4)nc3)CC2)cc1OC (centres unmarked)", "pIC50", 8.76),
    ("CC(C)(C)CCN1CCC(NC(=O)c2ccc(-c3cccc(F)c3)nc2)CC1", "pIC50", 9.03),
    ("O=C(NC1CCN(Cc2ccno2)CC1)c1ccc(-c2cccc(F)c2)nc1", "pIC50", 9.35),
    ("O=C(NC1CCN(Cc2ccnc3nccnc23)CC1)c1ccc(-c2cccc(F)c2)nc1", "pIC50", 9.06),
    ("COc1cc(C)cc(OC)c1CN1CCC(NC(=O)c2ccc(-c3cccc(F)c3)nc2)CC1", "pIC50", 8.57),
    ("CCCC(=O)N1CCC(NC(=O)c2ccc(-c3cccc(F)c3)nc2)CC1", "pIC50", 7.70),
    ("O=C(NC1CCN(Cc2ccnc3ccccc23)CC1)c1ccc(-c2cccc(F)c2)nc1", "pIC50", 9.30),
    ("CN(CCC#N)C(=O)c1ccc(N2CCC(NC(=O)c3ccc(-c4cccc(F)c4)nc3)CC2)nc1", "pIC50", 9.25),
    ("CC(C)(C)OC(=O)N1[C@@H]2CC[C@H]1CC(NC(=O)c1ccc(-c3cccc(F)c3)nc1)C2 (some centres unmarked)", "pIC50", 8.18),
    ("CCn1ncc(CN2CCC(NC(=O)c3ccc(-c4cccc(F)c4)nc3)CC2)c1C", "pIC50", 8.71),
]

P = Cn1c(CN2CCC(NC(=O)c3ccc(-c4cccc(F)c4)nc3)CC2)cc2ccccc21
Q = CCn1cc(CN2CCC(NC(=O)c3ccc(-c4cccc(F)c4)nc3)CC2)c(C)n1
R = Cc1ccc(-c2c(CN3CCC(NC(=O)c4ccc(-c5cccc(F)c5)nc4)CC3)cnn2C)cc1
S = O=C(NC1CCN(c2nncc3ccccc23)CC1)c1ccc(-c2cccc(F)c2)nc1
Order the 4 molecules from highest to lowest pIC50. Please, when replying, give the labels in the order that was requested.
S, Q, P, R
(S: 9.44, Q: 9.13, P: 8.80, R: 8.56)

a = CCOc1ccccc1CN1CCC(NC(=O)c2ccc(-c3cccc(F)c3)nc2)CC1
b = O=C(NC1CCN(Cc2ccc(-c3ncccn3)cc2)CC1)c1ccc(-c2cccc(F)c2)nc1
c = CC(C)(O)c1cc(CN2CCC(NC(=O)c3ccc(-c4cccc(F)c4)nc3)CC2)ccn1
d = COc1ccccc1-c1ncc(CN2CCC(NC(=O)c3ccc(-c4cccc(F)c4)nc3)CC2)cn1
e = O=C(NC1CCN(Cc2cccc(F)c2F)CC1)c1ccc(-c2cccc(F)c2)nc1
In this exercise, place the 5 molecules in ascending sequence of their recorded pIC50. Please, when replying, give the labels in the order that was requested.
d, b, c, a, e

I = CCOC(=O)N1CCC(NC(=O)c2ccc(-c3ccccc3F)nc2)CC1
II = O=C(NC1CCN(Cc2cccn3cc(Br)nc23)CC1)c1ccc(-c2cccc(F)c2)nc1
III = O=C(NC1CCN(CC(F)(F)F)CC1)c1cnc(-c2cccc(F)c2)c(Cl)c1
Order the 3 molecules from highest to lowest pIC50. Please, when replying, give the labels in the order that was requested.
I, II, III

====

TEST SYSTEM: human recombinant H-PGDS (Homo sapiens)
EXPERIMENT SUMMARY: Fluorescence intensity h-PGDS TBA enzyme assay
Assay type: biochemical
SETTINGS: Examples up to 622 (and 3a, 3b)
ENDPOINT: IC50 (nM)

Use these answered entries as a reference point.
# COMPOUND, TEST SYSTEM, MEASUREMENT
measured = [
    ("Cn1nc(CN2CCC(NC(=O)c3ccc(-c4cccc(F)c4)nc3)CC2)nc1-c1ccc(F)cc1", "human recombinant H-PGDS (Homo sapiens)", 2.68),
    ("COc1ccc(CN2CCC(NC(=O)c3ccc(-c4cccc(F)c4)nc3)CC2)c(F)c1", "human recombinant H-PGDS (Homo sapiens)", 0.531),
    ("COc1cc(CN2CCC(NC(=O)c3ccc(-c4cccc(F)c4)nc3)CC2)cc2c1OCCO2", "human recombinant H-PGDS (Homo sapiens)", 0.817),
    ("O=C(NC1CCN(Cc2ccc(=O)[nH]n2)CC1)c1ccc(-c2cccc(F)c2)nc1", "human recombinant H-PGDS (Homo sapiens)", 0.855),
    ("O=C(NC1CCN(Cc2nc3ccccc3n2C2CC2)CC1)c1ccc(-c2cccc(F)c2)nc1", "human recombinant H-PGDS (Homo sapiens)", 2.53),
    ("CCOC(=O)c1cn2c(CN3CCC(NC(=O)c4ccc(-c5cccc(F)c5)nc4)CC3)cccc2n1", "human recombinant H-PGDS (Homo sapiens)", 1.43),
    ("O=C(NC1CCN(c2ccnc(N3CCc4ccccc4C3)n2)CC1)c1ccc(-c2cccc(F)c2)nc1", "human recombinant H-PGDS (Homo sapiens)", 8.25),
    ("O=C(NC1CCN(c2ccc(C(=O)NCC3CCCCC3)nn2)CC1)c1ccc(-c2cccc(F)c2)nc1", "human recombinant H-PGDS (Homo sapiens)", 14.5),
]

A = CC(c1cnn(-c2ccccc2)c1)N1CCC(NC(=O)c2ccc(-c3cccc(F)c3)nc2)CC1 (stereo not shown)
B = O=C(NC1CCN(c2ccc(C(=O)N3CC=CC3)cn2)CC1)c1ccc(-c2cccc(F)c2)nc1
Would you kindly point out which of A and B has the smaller IC50 figure? Record your answer as the label of the chosen record.
B
(B: 1.04 nM, A: 1.99 nM)
